Attribute: pIC50
EXPERIMENTAL SYSTEM: Carboxylic ester hydrolase (Equus caballus)
Sequence (Q9N1N9 whole entry): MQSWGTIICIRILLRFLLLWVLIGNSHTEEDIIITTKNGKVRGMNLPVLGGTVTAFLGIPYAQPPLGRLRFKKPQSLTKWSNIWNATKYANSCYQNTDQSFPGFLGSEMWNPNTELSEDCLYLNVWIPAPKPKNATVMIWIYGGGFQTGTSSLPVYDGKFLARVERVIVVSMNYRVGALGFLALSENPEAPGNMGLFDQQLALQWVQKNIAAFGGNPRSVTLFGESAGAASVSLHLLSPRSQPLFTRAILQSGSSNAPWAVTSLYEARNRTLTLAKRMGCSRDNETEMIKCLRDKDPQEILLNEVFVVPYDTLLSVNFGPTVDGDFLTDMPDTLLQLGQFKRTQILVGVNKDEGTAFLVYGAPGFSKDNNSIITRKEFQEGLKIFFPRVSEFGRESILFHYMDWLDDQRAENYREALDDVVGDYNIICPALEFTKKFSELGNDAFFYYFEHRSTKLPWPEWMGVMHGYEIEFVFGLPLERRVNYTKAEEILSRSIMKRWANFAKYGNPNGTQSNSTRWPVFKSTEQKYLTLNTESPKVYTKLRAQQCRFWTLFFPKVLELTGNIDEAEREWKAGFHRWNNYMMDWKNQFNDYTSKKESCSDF
pIC50: −log10 of the molar value.
RECORDED METRIC: pIC50

mol=O=C(Nc1cccc(Cl)c1)Nc1nc(-c2cc3ccccc3oc2=O)cs1 experimental_system="Carboxylic ester hydrolase (Equus caballus)" recorded_metric=pIC50 observed_measurement=4.18
mol=COc1ccc(NC(=O)Nc2nc(-c3cc4cccc(OC)c4oc3=O)cs2)cc1 experimental_system="Carboxylic ester hydrolase (Equus caballus)" recorded_metric=pIC50 observed_measurement=4.00
mol=COc1ccc(NC(=O)Nc2nc(-c3cc4cc([N+](=O)[O-])ccc4oc3=O)cs2)cc1 experimental_system="Carboxylic ester hydrolase (Equus caballus)" recorded_metric=pIC50 observed_measurement=3.93
mol=O=C(Nc1ccc([N+](=O)[O-])cc1)Nc1nc(-c2cc3ccccc3oc2=O)cs1 experimental_system="Carboxylic ester hydrolase (Equus caballus)" recorded_metric=pIC50 observed_measurement=4.28
mol=Cc1ccc(NC(=O)Nc2nc(-c3cc4ccccc4oc3=O)cs2)cc1 experimental_system="Carboxylic ester hydrolase (Equus caballus)" recorded_metric=pIC50 observed_measurement=4.26
mol=O=C(Nc1ccc(Cl)cc1)Nc1nc(-c2cc3cc([N+](=O)[O-])ccc3oc2=O)cs1 experimental_system="Carboxylic ester hydrolase (Equus caballus)" recorded_metric=pIC50 observed_measurement=4.11
mol=COc1cccc2cc(-c3csc(NC(=O)Nc4ccc(F)cc4)n3)c(=O)oc12 experimental_system="Carboxylic ester hydrolase (Equus caballus)" recorded_metric=pIC50 observed_measurement=4.20
mol=COc1cccc2cc(-c3csc(NC(=O)Nc4cccc(Cl)c4)n3)c(=O)oc12 experimental_system="Carboxylic ester hydrolase (Equus caballus)" recorded_metric=pIC50 observed_measurement=4.20
mol=COc1cccc2cc(-c3csc(NC(=O)Nc4cccc(F)c4)n3)c(=O)oc12 experimental_system="Carboxylic ester hydrolase (Equus caballus)" recorded_metric=pIC50 observed_measurement=3.96
mol=COc1cccc(NC(=O)Nc2nc(-c3cc4ccccc4oc3=O)cs2)c1 experimental_system="Carboxylic ester hydrolase (Equus caballus)" recorded_metric=pIC50 observed_measurement=4.12
mol=COc1ccccc1NC(=O)Nc1nc(-c2cc3ccccc3oc2=O)cs1 experimental_system="Carboxylic ester hydrolase (Equus caballus)" recorded_metric=pIC50 observed_measurement=4.52
mol=COc1cccc2cc(-c3csc(NC(=O)Nc4ccc(C)cc4)n3)c(=O)oc12 experimental_system="Carboxylic ester hydrolase (Equus caballus)" recorded_metric=pIC50 observed_measurement=4.02
mol=O=c1oc2ccccc2cc1-c1csc(NC(=S)Nc2ccc(Cl)cc2)n1 experimental_system="Carboxylic ester hydrolase (Equus caballus)" recorded_metric=pIC50 observed_measurement=4.61
mol=COc1cccc2cc(-c3csc(NC(=O)Nc4ccc(I)cc4)n3)c(=O)oc12 experimental_system="Carboxylic ester hydrolase (Equus caballus)" recorded_metric=pIC50 observed_measurement=3.80
mol=O=C(Nc1cccc(F)c1)Nc1nc(-c2cc3ccccc3oc2=O)cs1 experimental_system="Carboxylic ester hydrolase (Equus caballus)" recorded_metric=pIC50 observed_measurement=4.21
mol=O=C(Nc1nc(-c2cc3ccccc3oc2=O)cs1)Nc1ccccc1F experimental_system="Carboxylic ester hydrolase (Equus caballus)" recorded_metric=pIC50 observed_measurement=4.46
mol=COc1ccc(NC(=S)Nc2nc(-c3cc4cccc(OC)c4oc3=O)cs2)cc1 experimental_system="Carboxylic ester hydrolase (Equus caballus)" recorded_metric=pIC50 observed_measurement=4.51
mol=COc1cccc2cc(-c3csc(NC(=O)Nc4ccccc4F)n3)c(=O)oc12 experimental_system="Carboxylic ester hydrolase (Equus caballus)" recorded_metric=pIC50 observed_measurement=4.10
mol=Cc1ccc(NC(=O)Nc2nc(-c3cc4cc([N+](=O)[O-])ccc4oc3=O)cs2)cc1 experimental_system="Carboxylic ester hydrolase (Equus caballus)" recorded_metric=pIC50 observed_measurement=3.71
mol=COc1ccc(NC(=O)Nc2nc(-c3cc4ccccc4oc3=O)cs2)cc1 experimental_system="Carboxylic ester hydrolase (Equus caballus)" recorded_metric=pIC50 observed_measurement=4.08
mol=COc1cccc2cc(-c3csc(NC(=S)Nc4cccc(F)c4)n3)c(=O)oc12 experimental_system="Carboxylic ester hydrolase (Equus caballus)" recorded_metric=pIC50 observed_measurement=4.74
mol=COc1cccc(NC(=O)Nc2nc(-c3cc4cc([N+](=O)[O-])ccc4oc3=O)cs2)c1 experimental_system="Carboxylic ester hydrolase (Equus caballus)" recorded_metric=pIC50 observed_measurement=4.11
mol=O=C(Nc1ccccc1)Nc1nc(-c2cc3cc([N+](=O)[O-])ccc3oc2=O)cs1 experimental_system="Carboxylic ester hydrolase (Equus caballus)" recorded_metric=pIC50 observed_measurement=4.07
mol=COc1cccc2cc(-c3csc(NC(=S)Nc4ccc(Cl)cc4)n3)c(=O)oc12 experimental_system="Carboxylic ester hydrolase (Equus caballus)" recorded_metric=pIC50 observed_measurement=4.92
mol=O=C(Nc1ccc(F)cc1)Nc1nc(-c2cc3cc([N+](=O)[O-])ccc3oc2=O)cs1 experimental_system="Carboxylic ester hydrolase (Equus caballus)" recorded_metric=pIC50 observed_measurement=5.31
mol=COc1cccc2cc(-c3csc(NC(=S)Nc4ccccc4)n3)c(=O)oc12 experimental_system="Carboxylic ester hydrolase (Equus caballus)" recorded_metric=pIC50 observed_measurement=4.66
